Sourced from patent US6093730A

# STUDY_TARGET: prolyl-4-hydroxylase (Gallus gallus, UniProt P16924)
# METHOD_NOTES: Inhibition of prolyl-4-hydroxylase (Table I)
# Assay type: biochemical
MEASURED_PARAMETER: pIC50
pIC50 is defined as minus the log10 of a concentration measured in mol/L.

## Task Using the record for O=C(O)CNC(=O)c1nc(Cl)c2ccccc2c1O [Example 9] , report its pIC50.
## Result 5.64

###

# STUDY_TARGET: prolyl-4-hydroxylase (Gallus gallus, UniProt P16924)
# Sequence (P16924 1-516): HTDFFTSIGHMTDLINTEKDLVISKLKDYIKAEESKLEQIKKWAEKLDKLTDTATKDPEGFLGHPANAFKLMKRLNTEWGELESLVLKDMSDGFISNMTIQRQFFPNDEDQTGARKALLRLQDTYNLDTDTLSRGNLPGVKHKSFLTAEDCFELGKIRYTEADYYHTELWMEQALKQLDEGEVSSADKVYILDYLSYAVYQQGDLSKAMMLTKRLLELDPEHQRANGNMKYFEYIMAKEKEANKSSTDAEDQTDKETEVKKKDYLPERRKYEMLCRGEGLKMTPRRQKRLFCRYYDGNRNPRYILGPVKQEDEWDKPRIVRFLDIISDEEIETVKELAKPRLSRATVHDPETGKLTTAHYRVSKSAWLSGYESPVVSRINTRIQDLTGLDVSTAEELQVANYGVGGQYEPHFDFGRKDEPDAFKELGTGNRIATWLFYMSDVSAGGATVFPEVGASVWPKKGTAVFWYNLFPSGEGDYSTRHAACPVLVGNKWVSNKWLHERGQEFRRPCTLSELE
# Sequence (P09102 23-515 partner): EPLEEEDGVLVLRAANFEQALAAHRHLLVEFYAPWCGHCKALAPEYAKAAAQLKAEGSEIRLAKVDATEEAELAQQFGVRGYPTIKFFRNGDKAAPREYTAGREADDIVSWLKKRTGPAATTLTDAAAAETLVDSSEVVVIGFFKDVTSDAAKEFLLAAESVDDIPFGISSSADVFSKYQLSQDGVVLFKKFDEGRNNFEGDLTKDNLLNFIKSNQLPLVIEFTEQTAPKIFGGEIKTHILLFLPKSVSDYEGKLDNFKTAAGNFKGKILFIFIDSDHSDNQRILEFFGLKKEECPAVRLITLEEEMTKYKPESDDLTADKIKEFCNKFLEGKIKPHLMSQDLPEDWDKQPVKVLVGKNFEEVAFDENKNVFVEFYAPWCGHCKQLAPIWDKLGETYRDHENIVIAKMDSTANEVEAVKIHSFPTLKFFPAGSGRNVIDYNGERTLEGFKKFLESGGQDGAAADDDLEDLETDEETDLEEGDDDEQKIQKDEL
# METHOD_NOTES: Inhibition of prolyl-4-hydroxylase (Table I)
# Type: biochemical
# TEST_SETTINGS: Table I; read-out: IC50
Binary label based on IC50 with cut-off 700 nM: below gives condition met, not below gives condition not met.

As a guide, the following entries are already answered.
MOLECULE | ANSWER_LABEL
O=C(O)CNC(=O)c1nc(Cl)c2cc(Cl)c(Cl)cc2c1O | condition not met
CC(C)Oc1ccc2c(O)c(C(=O)NCC(=O)O)nc(Cl)c2c1 | condition met
CC(C)Oc1ccc2c(O)c(C(=O)NCC(=O)O)ncc2c1 | condition met
O=C(O)CNC(=O)c1nc(Cl)c2ccc(OCc3ccccc3)cc2c1O | condition not met
CCCCOc1ccc2cnc(C(=O)NCC(=O)O)c(O)c2c1 | condition met
COc1ccc2c(O)c(C(=O)NCC(=O)O)nc(Cl)c2c1 | condition not met
O=C(O)CNC(=O)c1ncc2c(Cl)cccc2c1O | condition met
COc1ccc2c(Cl)nc(C(=O)NCC(=O)O)c(O)c2c1 | condition met

## Task Does this compound meet the criterion IC50 < 700 nM? `O=C(O)CNC(=O)c1nc(Cl)c2cc(OCc3ccccc3)ccc2c1O`
## Result condition met

## Task Answer whether the compound `COc1cccc2c(O)c(C(=O)NCC(=O)O)ncc12` has IC50 strictly less than 700 nM
## Result condition met

## Task Regarding `CCCCOc1ccc2c(O)c(C(=O)NCC(=O)O)ncc2c1` , kindly confirm whether its IC50 is beneath 700 nM.
## Result condition not met

## Task In plain terms, does `CC(C)Oc1ccc2c(Cl)nc(C(=O)NCC(=O)O)c(O)c2c1` come in under 700 nM for IC50?
## Result condition not met

## Task Quick check: does `CCCCOc1ccc2c(Cl)nc(C(=O)NCC(=O)O)c(O)c2c1` have IC50 under 700 nM?
## Result condition not met
